# TEST_NAME: PET hydrolysis, aromatic products released after 48 h (umol product/mg enzyme); higher = more PET depolymerization activity
# REPORTED_CONDITIONS: substrate: aFilm; 60 °C; pH 4.5
READOUT: PET hydrolysis

INSERT INTO assay_data (seq, qualifier_sign, recorded_measurement) VALUES
  ('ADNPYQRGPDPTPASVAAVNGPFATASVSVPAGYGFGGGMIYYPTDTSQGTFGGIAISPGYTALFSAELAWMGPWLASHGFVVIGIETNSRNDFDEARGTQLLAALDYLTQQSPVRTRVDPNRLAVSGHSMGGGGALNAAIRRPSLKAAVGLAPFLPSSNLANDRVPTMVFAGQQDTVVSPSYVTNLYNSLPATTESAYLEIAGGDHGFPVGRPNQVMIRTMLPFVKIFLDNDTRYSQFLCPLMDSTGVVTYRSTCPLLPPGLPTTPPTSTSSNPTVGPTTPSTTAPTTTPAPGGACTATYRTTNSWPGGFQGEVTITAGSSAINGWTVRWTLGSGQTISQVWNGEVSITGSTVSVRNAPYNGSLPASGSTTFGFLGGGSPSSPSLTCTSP [TEP165]', '=', 2),
  ('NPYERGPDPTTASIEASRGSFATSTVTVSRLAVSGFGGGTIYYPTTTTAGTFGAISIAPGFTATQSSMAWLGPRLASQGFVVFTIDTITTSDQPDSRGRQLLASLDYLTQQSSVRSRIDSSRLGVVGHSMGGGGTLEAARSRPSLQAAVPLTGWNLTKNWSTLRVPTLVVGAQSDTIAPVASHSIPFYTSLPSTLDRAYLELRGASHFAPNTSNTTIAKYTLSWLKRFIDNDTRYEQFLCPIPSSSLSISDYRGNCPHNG [ESM167]', '<', 3);
